B1: TPR t1 (parent)
chain: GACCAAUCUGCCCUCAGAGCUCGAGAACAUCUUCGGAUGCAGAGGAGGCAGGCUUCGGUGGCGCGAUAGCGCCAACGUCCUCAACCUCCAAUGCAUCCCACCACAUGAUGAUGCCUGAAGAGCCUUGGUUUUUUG

- Variants of: B1
- EXPERIMENTAL DETAILS: polymerase ribozyme fitness, log enrichment relative to wild type (log ratio); higher = more active; in vitro selection for triplet polymerase activity
# polymerase ribozyme fitness (log ratio) annotations
MEASURED METRIC: polymerase ribozyme fitness (log ratio)

RESIDUE STRING	RECORDED MEASUREMENT
GACCAAUCUGCCCUAAGAGCUCGAGAACAUCUUCGGAUGCAGAGGAGGCAGUCUUCGGUGGCGCGAUAGCGCCAACGUCCUCAACCUCCAAUGGAUCCCACCACAUGAUGAUGCCUGAAGAGCCUUGGUUUUUUG [C15A G52U C94G]	-3.9
GACCAAUCUGCCCUCAGAGCUCGAGAACAUCUUCGGAUGCAGAGGAGGCAGGCUUCGGUGGCGCGAUAGCGCCAACGUCCUUAACCUCCAAUGCAUCCCACCACAUGAUGAUGCCUGAAGAGCCUUAGUUUUUUG [C82U G127A]	-1.24
GACCAAUCUGCCCUCAGAGCUCGAGAACACCUUCGGCUGCAGAGGAGGCAGGCUUCGGUGGCGCGAUAGCGCCAACGUCCUCAACCUCCAAUGCAUCCCACCACAUGAUGAUGCCUGAAGAGCCUUGGUUUUUUG [U30C A37C]	-3.86
GACCAAUCUGCCCUCAGAGCUCGAGAACUUCUUCGGAUGCAGAGGAGGCAGGCUUCGGUGGCGCGAUAGCGCCAACGUCCUCAACCUCCAAUGCAUCCGACCACAUGAUGAUGCCUGAGCAGCCUUGGUUUUUUG [A29U C99G A119G G120C]	-6.66
GACCAAUAUUCCCUCAGAGCUCGAGAACAUCUUCGGAUGCAGAGGAGGCAGGCUUCGGUGGCGCGAUAGCGCAAACGUCCUCAACCUCCAAUGCAUCCCACCACAUGAUGAUGCCUGAAGAGCCUUGGUUUUUUG [C8A G10U C73A]	-0.361
GACCAAUGUGCCCUCAGAGCUCGAGAACAUCUUCGGAUGCAGAGGAGGCAGGCUUCGGUGGCGCGAUAGCGCCAACGUCCUCAACCUCCAAUGCAUUCCACUACAUGAUGAUGCCUGAAGAGCCUUGGUUUUUUG [C8G C97U C102U]	-1.4
GACCAAUCUGGCCUCAGAGCUCGAGAUCAUCUUCGGAUGCAGAGGAGGAAGGCUUCGGUGGCGCGAUAGCGCCAACGUCCUCAUCCUCCAAUGCAUCCCACCACAUGAUGAUGACUGAAAAGCCAUGGUUUUUUG [C11G A27U C49A A84U C114A G120A U125A]	-5.59
